- System: Bowes
- experimental_details: drug sensitivity score (DSS) (DSS (unitless, 0-50 scale)); higher = more sensitive (stronger viability inhibition); extreme values may be limits of the assay
- condition_parameters: 72 h; culture: 2D
So I've got a bunch of molecules here, and I need their drug sensitivity score values.

| smiles_record | metric | measured |
| --- | --- | --- |
| COc1cccc2c1C(=O)c1c(O)c3c(c(O)c1C2=O)C[C@@](O)(/C(CO)=N/NC(=O)CCCCCN1C(=O)C=CC1=O)C[C@@H]3O[C@H]1C[C@H](N)[C@H](O)[C@H](C)O1 | drug sensitivity score | 4.3 |

The following molecules each have a reported value; give each one's drug sensitivity score.
1. CNCc1ccc(-c2[nH]c3cc(F)cc4c3c2CCNC4=O)cc1
2. C#Cc1cccc(Nc2ncnc3cc4c(cc23)OCCOCCOCCO4)c1
3. CC(=O)Nc1ccc(C(=O)Nc2ccccc2N)cc1
4. CC(C)c1cc(-c2n[nH]c(=O)n2-c2ccc3c(ccn3C)c2)c(O)cc1O

Result:
1. 0.6
2. 0
3. 0
4. 15.2

Could you report drug sensitivity score for every entry in the following list?
1. N#CCNC(=O)c1ccc(-c2ccnc(Nc3ccc(N4CCOCC4)cc3)n2)cc1
2. O=c1[nH]c(=O)n([C@H]2C[C@H](O)[C@@H](CO)O2)cc1F

Result:
1: 4.1; 2: 15.7

Fill in drug sensitivity score for each of the 2 molecules listed.
1. COc1cc2c(NC3CCN(C(C)C)CC3)nc(C3CCCCC3)nc2cc1OCCCN1CCCC1
2. Nc1ccccc1NC(=O)c1ccc(CNC(=O)OCc2cccnc2)cc1

Result:
[6.6, 1.8]
